- SYSTEM_NAME: Factor X (FX), P00742
- Sequence (P00742 whole entry, looked up): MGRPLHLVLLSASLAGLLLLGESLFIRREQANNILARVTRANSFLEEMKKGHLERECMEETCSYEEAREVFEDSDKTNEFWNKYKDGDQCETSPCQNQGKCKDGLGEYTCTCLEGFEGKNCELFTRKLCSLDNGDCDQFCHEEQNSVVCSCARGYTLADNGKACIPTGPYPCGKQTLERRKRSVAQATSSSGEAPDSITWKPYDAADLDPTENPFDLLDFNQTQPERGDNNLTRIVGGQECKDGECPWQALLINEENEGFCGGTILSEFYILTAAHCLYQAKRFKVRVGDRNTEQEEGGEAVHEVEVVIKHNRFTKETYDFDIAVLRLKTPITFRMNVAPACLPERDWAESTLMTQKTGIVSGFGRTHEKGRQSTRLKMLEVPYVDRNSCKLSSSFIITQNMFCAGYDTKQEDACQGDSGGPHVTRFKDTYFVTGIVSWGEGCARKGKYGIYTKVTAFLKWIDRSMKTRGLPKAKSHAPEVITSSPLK

{"columns": ["PROTEIN", "UNIT_STRING", "KM"],
 "data": [
  ["FIXa D203N/F205T/R318Y/E410N (protein) chain 1: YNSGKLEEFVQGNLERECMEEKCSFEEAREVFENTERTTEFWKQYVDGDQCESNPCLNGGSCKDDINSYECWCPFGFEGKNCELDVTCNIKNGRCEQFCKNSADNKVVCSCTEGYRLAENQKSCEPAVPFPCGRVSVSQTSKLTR chain 2: VVGGEDAKPGQFPWQVVLNGKVNATCGGSIVNEKWIVTAAHCVETGVKITVVAGEHNIEETEHTEQKRNVIRIIPHHNYNAAINKYNHDIALLELDEPLVLNSYVTPICIADKEYTNIFLKFGSGYVSGWGRVFHKGYSALVLQYLRVPLVDRATCLRSTKFTIYNNMFCAGFHEGGRDSCQGDSGGPHVTEVEGTSFLTGIISWGEECAMKGKYGIYTKVSRYVNWIKNKTKLT", "nM", 45.7],
  ["FIXa-Y155F/K247N/N249S/R338E/T343R/R403E/E410N (protein) chain 1: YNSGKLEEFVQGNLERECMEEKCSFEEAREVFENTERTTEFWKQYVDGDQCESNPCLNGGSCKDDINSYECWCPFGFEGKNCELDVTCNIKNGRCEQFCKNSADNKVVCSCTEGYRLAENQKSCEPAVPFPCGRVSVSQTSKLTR chain 2: VVGGEDAKPGQFPWQVVLNGKVDAFCGGSIVNEKWIVTAAHCVETGVKITVVAGEHNIEETEHTEQNRSVIRIIPHHNYNAAINKYNHDIALLELDEPLVLNSYVTPICIADKEYTNIFLKFGSGYVSGWGRVFHKGRSALVLQYLRVPLVDRATCLESTKFRIYNNMFCAGFHEGGRDSCQGDSGGPHVTEVEGTSFLTGIISWGEECAMKGKYGIYTKVSEYVNWIKNKTKLT", "nM", 26.4]
]}
